Target: Neu5Ac(a2-3)Gal(b1-3)[GlcNAc(b1-6)]GalNAc
Test: glycan array binding signal (z-score within array); higher = stronger binding
Details: glycan notation: IUPAC condensed, linker removed
Shown is part of a subset that was picked to be rich in the strongest signals.
Assay endpoint: glycan array binding signal (z-score)
Lab note: jot the number down without any unit.

Apa (Mycobacterium tuberculosis), Rv1860 (protein) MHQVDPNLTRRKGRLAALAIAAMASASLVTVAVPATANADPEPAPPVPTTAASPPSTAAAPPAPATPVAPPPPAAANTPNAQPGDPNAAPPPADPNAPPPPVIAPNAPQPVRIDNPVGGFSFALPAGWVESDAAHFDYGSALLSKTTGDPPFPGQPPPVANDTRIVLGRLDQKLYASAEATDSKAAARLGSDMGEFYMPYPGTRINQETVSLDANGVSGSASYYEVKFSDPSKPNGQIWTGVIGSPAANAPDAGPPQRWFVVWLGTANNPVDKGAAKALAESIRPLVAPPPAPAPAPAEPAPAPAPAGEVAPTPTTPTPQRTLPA = -0.268
Epa19 (Candida glabrata) (protein) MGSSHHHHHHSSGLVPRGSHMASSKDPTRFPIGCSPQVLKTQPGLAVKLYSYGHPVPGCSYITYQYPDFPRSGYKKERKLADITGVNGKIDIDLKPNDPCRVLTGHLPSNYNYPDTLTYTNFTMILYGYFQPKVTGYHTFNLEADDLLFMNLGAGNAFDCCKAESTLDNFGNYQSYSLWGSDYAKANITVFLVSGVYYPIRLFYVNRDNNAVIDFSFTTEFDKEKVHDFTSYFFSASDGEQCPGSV = -0.681
Pwp4 (Candida glabrata) (protein) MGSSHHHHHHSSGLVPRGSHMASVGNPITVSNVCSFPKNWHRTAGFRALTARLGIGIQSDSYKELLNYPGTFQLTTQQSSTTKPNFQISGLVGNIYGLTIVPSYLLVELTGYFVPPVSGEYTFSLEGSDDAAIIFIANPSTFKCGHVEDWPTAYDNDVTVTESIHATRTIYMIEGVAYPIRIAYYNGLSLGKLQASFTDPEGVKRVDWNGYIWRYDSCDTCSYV = 3.89

Turning to the following binder.
Q: Looking for the measured glycan array binding signal (z-score) of SJCP1531 (Schistosoma japonicum) (protein) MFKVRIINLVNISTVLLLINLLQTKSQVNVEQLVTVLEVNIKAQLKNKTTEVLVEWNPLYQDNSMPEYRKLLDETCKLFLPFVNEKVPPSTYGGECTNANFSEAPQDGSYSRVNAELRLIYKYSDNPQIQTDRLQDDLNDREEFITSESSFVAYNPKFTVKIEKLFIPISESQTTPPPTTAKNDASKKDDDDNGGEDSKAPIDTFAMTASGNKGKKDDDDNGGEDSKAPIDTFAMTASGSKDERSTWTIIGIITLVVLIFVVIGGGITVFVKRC , can you help?
Result: 0.205

Data origin, for the record: the supplement of paper PMC8728848
